- Test system: melan-a cells
- Assay explanation: Melanin assay in cultured murine melanocytes (melan-a)
- Format: cell-based
- Protocol conditions: 1 μM, 72 hours of incubation
- Method: The Spectrum Collection library consisting of 2000 drug compounds or natural products represents a source for the identification of compounds useful in the present invention. The library may be screened to identify novel pigmentation inhibitors in cultured murine melanocytes (melan-a). […] For the primary and secondary screening, cells were harvested and dissolved in 200 μl of 2N NaOH in 20% DMSO at 70° C. A 180-μl aliquot of the resulting solution was measured for absorbance at 490 nm. […]
Give measured % of control melanin remaining after treatment @ 1 μM for each item. Keep answers brief.

Examples with their reported % of control melanin remaining after treatment @ 1 μM follow.
1) COc1ccc(-c2coc3c4c(c(CC=C(C)C)c(O)c3c2=O)OC(C)(C)C=C4)cc1 ... 99 % of control
2) CC(C)=CCc1c2c(c3occ(-c4ccc(O)c(O)c4)c(=O)c3c1O)C=CC(C)(C)O2 ... 53 % of control
3) CC(C)=CCc1c2c(c(O)c3c(=O)c(-c4ccc(O)cc4)coc13)C=CC(C)(C)O2 ... 100 % of control

Need % of control melanin remaining after treatment @ 1 μM for each of these compounds.
1. CC(C)=CCc1c2c(c3occ(-c4ccc(O)cc4)c(=O)c3c1O)C=CC(C)(C)O2
2. COc1ccc(-c2coc3c4c(c(CC=C(C)C)c(O)c3c2=O)OC(C)(C)C=C4)cc1OC

["99 % of control", "80 % of control"]

----------
Give measured % of control melanin remaining after treatment @ 5 μM for each item. Keep answers brief.
- System: melan-a cells
- Assay explanation: Melanin assay in cultured murine melanocytes (melan-a)
- Format: cell-based
- Protocol conditions: 5 μM, 72 hours of incubation

Examples with their reported % of control melanin remaining after treatment @ 5 μM follow.
1) COc1ccc(-c2coc3c4c(c(CC=C(C)C)c(O)c3c2=O)OC(C)(C)C=C4)cc1 [ID 2, Osajin- 4′methyl ester] ... 70 % of control
2) COc1ccc(-c2coc3c4c(c(CC=C(C)C)c(O)c3c2=O)OC(C)(C)C=C4)cc1OC [ID 4, Pomiferin-3′,4′-dimethyl ether] ... 50 % of control

Need % of control melanin remaining after treatment @ 5 μM for each of these compounds.
1. CC(C)=CCc1c2c(c3occ(-c4ccc(O)cc4)c(=O)c3c1O)C=CC(C)(C)O2 [ID 1, Osajin]
2. CC(C)=CCc1c2c(c(O)c3c(=O)c(-c4ccc(O)cc4)coc13)C=CC(C)(C)O2 [ID 5, Warangalone]

87 % of control
78 % of control

Source of measurements: patent US9822125B2
